Tested on: Clostridium sporogenes DSM 1664
Experiment: fold change of Tryptamine concentration vs plate DMSO controls (fold change (ratio)); higher = more amine produced, active = hit call of the paper (significant change in both replicates, either direction)
Conditions: incubation time: 27 h, anaerobic, 37 °C
Kindly supply the reported fold change of Tryptamine concentration values for the records listed here.
Enter a number only.

Given the molecule COc1ccc(C2C(=O)c3ccccc3C2=O)cc1 [Anisindione] (20 µM) , what is its reported fold change of Tryptamine concentration? 0.976

Given the molecule COc1cc(NS(=O)(=O)c2ccc(N)cc2)ncn1 [Sulfamonomethoxine] (20 µM) , what is its reported fold change of Tryptamine concentration? 0.982

Given the molecule CCCCC(C)(O)C/C=C/[C@H]1[C@H](O)CC(=O)[C@@H]1CCCCCCC(=O)OC (mixture of isomers) [Misoprostol] (20 µM) , what is its reported fold change of Tryptamine concentration? 0.979

Given the molecule O=c1[nH]c(=O)n([C@H]2C[C@H](O)[C@@H](CO)O2)cc1C(F)(F)F [Trifluridine] (20 µM) , what is its reported fold change of Tryptamine concentration? 1.02

Given the molecule CC(C)CN(C[C@@H](O)[C@H](Cc1ccccc1)NC(=O)O[C@H]1CO[C@H]2OCC[C@H]21)S(=O)(=O)c1ccc(N)cc1 [Darunavir] (20 µM) , what is its reported fold change of Tryptamine concentration? 1.01

---

Test system: Escherichia coli IAI1
Test: growth (OD595) fold change vs plate DMSO controls (fold change (ratio)); higher = more growth
Conditions: incubation time: 27 h, anaerobic, 37 °C
Where a name gives a salt, the structure may show the parent alone.
METRIC: growth
Enter a number only.

Checklist item: growth tested on Escherichia coli IAI1, entry COc1ccc(CC(C)NCC(O)c2ccc(O)c(NC=O)c2)cc1 (stereo not drawn) [Formoterol fumarate] (20 µM) , value? 1.21

Checklist item: growth tested on Escherichia coli IAI1, entry C[N+](C)(CCOc1ccccc1)Cc1ccccc1.O=C([O-])c1cc2ccccc2cc1O [Bephenium hydroxynaphthoate] (20 µM) , value? 0.99

Checklist item: growth tested on Escherichia coli IAI1, entry Oc1c(Cl)cc(Cl)c(Cl)c1Cc1c(O)c(Cl)cc(Cl)c1Cl [Hexachlorophene] (20 µM) , value? 0.943

Checklist item: growth tested on Escherichia coli IAI1, entry O=c1[nH]c(=O)n(C2CCCO2)cc1F (stereo not drawn) [Tegafur] (20 µM) , value? 0.975

Checklist item: growth tested on Escherichia coli IAI1, entry CC(NCCC(c1ccccc1)c1ccccc1)c1ccccc1 (stereo not drawn) [Fendiline hydrochloride] (20 µM) , value? 0.952

Checklist item: growth tested on Escherichia coli IAI1, entry O=C(NCC(O)CO)c1c(I)c(C(=O)NCC(O)CO)c(I)c(N(CCO)C(=O)CO)c1I (stereo not drawn) [Ioversol] (20 µM) , value? 0.998

Checklist item: growth tested on Escherichia coli IAI1, entry COc1cc(NC(C)CCCN)c2ncccc2c1 (stereo not drawn) [Primaquine diphosphate] (20 µM) , value? 1.02

Checklist item: growth tested on Escherichia coli IAI1, entry CCOC(=O)[C@H](CCc1ccccc1)N[C@H]1CCc2ccccc2N(CC(=O)O)C1=O [Benazepril hydrochloride] (20 µM) , value? 1

---

Kindly supply the reported fold change of 2-Phenylethylamine concentration values for the records listed here.
Test system: Ruminococcus gnavus DSM 108212
Assay: fold change of 2-Phenylethylamine concentration vs plate DMSO controls (fold change (ratio)); higher = more amine produced, active = hit call of the paper (significant change in both replicates, either direction)
Details: incubation time: 27 h, anaerobic, 37 °C
Where a name gives a salt, the structure may show the parent alone.
Enter a number only.

Given the compound COc1ccc(/C=C/C(=O)Nc2ccccc2C(=O)O)cc1OC [Tranilast] (20 µM) , what is its reported fold change of 2-Phenylethylamine concentration? 0.981

Given the compound CN(C)[C@@H]1C(=O)C(C(=O)NCNCCCC[C@H](N)C(=O)O)=C(O)[C@@]2(O)C(=O)C3=C(O)c4c(O)cccc4[C@@](C)(O)[C@H]3C[C@@H]12 [Lymecycline] (20 µM) , what is its reported fold change of 2-Phenylethylamine concentration? 1.02

Given the compound CC(C)N1CCN(c2ccc(OCC3COC(Cn4cncn4)(c4ccc(Cl)cc4Cl)O3)cc2)CC1 (stereo not drawn) [Terconazole] (20 µM) , what is its reported fold change of 2-Phenylethylamine concentration? 0.977

Given the compound CC(=O)Nc1c(I)c(NC(C)=O)c(I)c(C(=O)O)c1I [Diatrizoic acid dihydrate] (20 µM) , what is its reported fold change of 2-Phenylethylamine concentration? 1.01

Given the compound CCOc1ccccc1OCCN[C@H](C)Cc1ccc(OC)c(S(N)(=O)=O)c1 [(R)-Tamsulosin hydrochloride] (20 µM) , what is its reported fold change of 2-Phenylethylamine concentration? 0.976

Given the compound CC(C)(CO)[C@@H](O)C(=O)NCCC(=O)NCCSSCCNC(=O)CCNC(=O)[C@H](O)C(C)(C)CO [D-Pantethine] (20 µM) , what is its reported fold change of 2-Phenylethylamine concentration? 1.02

Given the compound Nc1ccn([C@@H]2CS[C@H](CO)O2)c(=O)n1 [Lamivudine] (20 µM) , what is its reported fold change of 2-Phenylethylamine concentration? 1.02

Given the compound Cc1noc(NS(=O)(=O)c2ccc(N)cc2)c1C [Sulfisoxazole] (20 µM) , what is its reported fold change of 2-Phenylethylamine concentration? 1
